Below is a list of entries, each paired with its recorded pKi value.
- system_under_test: CGRP receptor (SK-N-MC membrane) (Homo sapiens, UniProt O60894+Q16602)
- Construct: Purified SK-N-MC membrane was purchased from Perkin Elmer
- assay_protocol: I125-CGRP binding displacement assay on purified SK-N-MC membrane
pKi: −log10 of the molar value.
quantity_name: pKi

[[record]]
compound = "CC(C)N1CCN(c2c(F)cccc2[C@@H]2S[C@@](C)(CC(=O)N3CCC(N4CCc5ccccc5NC4=O)CC3)C(=O)N2CCC(C)(C)C)CC1"
test_result = "> 6.00"

[[record]]
compound = "CC(C)N1CCN(c2c(F)cccc2C2SC(CC(=O)N3CCC(n4c(=O)[nH]c5ncccc54)CC3)C(=O)N2CCC(C)(C)C)CC1 (stereo not drawn)"
test_result = "> 6.00"

[[record]]
compound = "CC(C)(C)N1CCN(c2c(F)cccc2[C@@H]2S[C@@H](CC(=O)N3CCC(N4CCc5ccccc5NC4=O)CC3)C(=O)N2CC2CCOCC2)CC1"
test_result = "> 6.00"

[[record]]
compound = "CCCCN1C(=O)[C@H](CC(=O)N2CCC(N3CCc4ccccc4NC3=O)CC2)SC1c1cccc(F)c1N1CCN(C(C)(C)C)CC1 (stereo partly drawn) [Compound 521]"
test_result = "> 6.00"

[[record]]
compound = "CC(C)(C)CCN1C(=O)C(CC(=O)N2CCC(N3Cc4ccccc4NC3=O)CC2)SC12CCCc1ccccc12 (stereo not drawn)"
test_result = "> 6.00"

[[record]]
compound = "Cc1cc(C2SC(CC(=O)N3CCC(n4cc(-c5ccccc5)[nH]c4=O)CC3)C(=O)N2CCC(C)C)cc2cn[nH]c12 (stereo not drawn)"
test_result = "< 5.30"

[[record]]
compound = "CC(C)(C)CCN1C(=O)[C@H](CC(=O)N2CCC(n3c(=O)[nH]c4ncccc43)CC2)S[C@H]1c1cccc(F)c1N1CCN(C(C)(C)C)CC1"
test_result = "> 6.00"

[[record]]
compound = "CN1CCN(c2ccccc2C2N(CCC(C)(C)C)C(=O)C(CC(=O)N3CCC(N4Cc5ccccc5NC4=O)CC3)[S+]2[O-])CC1 (stereo not drawn)"
test_result = "> 6.00"

[[record]]
compound = "O=C(CC1SC(c2ccccc2)N(C2CC2)C1=O)N1CCC(N2Cc3ccccc3NC2=O)CC1 (stereo not drawn)"
test_result = "5.30 to 6.00"

[[record]]
compound = "CC(C)CCN1C(=O)[C@H](CC(=O)N2CCC(N3CCc4ccccc4NC3=O)CC2)SC1c1cccc(F)c1N1CCN(C(C)(C)C)CC1 (stereo partly drawn) [Compound 545]"
test_result = "> 6.00"

[[record]]
compound = "CC(C)(C)N1CCN(c2c(F)cccc2[C@H]2S[C@@H](CC(=O)N3CCC(N4CCc5ccccc5NC4=O)CC3)C(=O)N2CC2CCCCC2)CC1"
test_result = "> 6.00"

[[record]]
compound = "CC(C)(C)CCN1C(=O)[C@H](CC(=O)N2CCC(n3c(=O)[nH]c4ncccc43)CC2)S[C@H]1c1cccc(F)c1N1CCC(O)C1 (stereo partly drawn)"
test_result = "> 6.00"

[[record]]
compound = "CN1CCN(c2ccccc2C2SC(CC(=O)N3CCC(n4c(=O)[nH]c5ccccc54)CC3)C(=O)N2CCC(C)(C)C)CC1 (stereo not drawn)"
test_result = "> 6.00"

[[record]]
compound = "CC(C)CCN1C(=O)[C@H](CC(=O)N2CCC(N3Cc4ccccc4NC3=O)CC2)SC1c1ccccn1 (stereo partly drawn) [Compound 148]"
test_result = "> 6.00"

[[record]]
compound = "CC(C)(C)CCN1C(=O)[C@H](CC(=O)N2CCC(N3CCc4ccccc4NC3=O)CC2)S[C@H]1c1ccccc1C1CCNCC1"
test_result = "> 6.00"


====

- system_under_test: endogenous CGRP receptor (Homo sapiens, UniProt O60894+Q16602)
- Sequence (Q16602 23-461): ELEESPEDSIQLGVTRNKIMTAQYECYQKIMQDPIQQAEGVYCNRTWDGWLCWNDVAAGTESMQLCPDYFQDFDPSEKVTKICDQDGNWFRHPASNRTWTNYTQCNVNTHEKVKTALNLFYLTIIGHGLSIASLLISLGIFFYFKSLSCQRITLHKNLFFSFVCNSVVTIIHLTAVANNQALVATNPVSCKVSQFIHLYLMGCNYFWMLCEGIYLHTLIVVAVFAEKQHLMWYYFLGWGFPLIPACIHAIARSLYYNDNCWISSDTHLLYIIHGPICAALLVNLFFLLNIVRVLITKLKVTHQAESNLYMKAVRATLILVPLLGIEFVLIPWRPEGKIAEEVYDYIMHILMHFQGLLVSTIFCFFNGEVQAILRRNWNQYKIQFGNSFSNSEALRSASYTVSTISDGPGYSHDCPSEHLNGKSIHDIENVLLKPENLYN
- Sequence (O60894 27-148): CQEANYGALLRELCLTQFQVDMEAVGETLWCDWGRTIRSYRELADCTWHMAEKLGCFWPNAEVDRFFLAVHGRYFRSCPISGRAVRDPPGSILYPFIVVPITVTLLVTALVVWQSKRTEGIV
- assay_protocol: CGRP functional antagonism using SK-N-MC-BLA (4C10), β-lactamase transcriptional reporter assay
- run_parameters: SK-N-MC (4C10) cells, inhibition of β-lactamase expression in the presence of 200 pM CGRP
pIC50: −log10 of the molar value.
Below is a list of entries, each paired with its recorded pIC50 value.
quantity_name: pIC50

[[record]]
compound = "O=C(CC1SC(C2CCOCC2)N(c2ccc(N3CCOCC3)cc2)C1=O)N1CCC(n2c(=O)[nH]c3ncccc32)CC1 (stereo not shown) [Compound 426]"
system_under_test = "endogenous CGRP receptor (Homo sapiens, UniProt O60894+Q16602)"
quantity_name = "pIC50"
test_result = "5.30 to 6.00"

[[record]]
compound = "CC(C)CCN1C(=O)C(CC(=O)N2CCC(N3CCc4ccccc4NC3=O)CC2)SC1C1CCCOC1 (stereo not shown) [Compound 239]"
system_under_test = "endogenous CGRP receptor (Homo sapiens, UniProt O60894+Q16602)"
quantity_name = "pIC50"
test_result = "> 6.00"

[[record]]
compound = "CCN1CCN(c2c(F)cccc2C2SC(CC(=O)N3CCC(n4cc(-c5ccccc5)[nH]c4=O)CC3)C(=O)N2CCC(C)(C)C)CC1 (stereo not shown) [Compound 346]"
system_under_test = "endogenous CGRP receptor (Homo sapiens, UniProt O60894+Q16602)"
quantity_name = "pIC50"
test_result = "> 6.00"

[[record]]
compound = "O=C(CC1SC(C2CCOCC2)N(c2ccc(N3CCOCC3)cc2)C1=O)N1CCC(N2CCc3ccccc3NC2=O)CC1 (stereo not shown) [Compound 422]"
system_under_test = "endogenous CGRP receptor (Homo sapiens, UniProt O60894+Q16602)"
quantity_name = "pIC50"
test_result = "> 6.00"


====

- system_under_test: endogenous CGRP receptor (Homo sapiens, UniProt O60894+Q16602)
- assay_protocol: CGRP functional antagonism using SK-N-MC-BLA (4C10), β-lactamase transcriptional reporter assay
- run_parameters: SK-N-MC (4C10) cells, inhibition of β-lactamase expression in the presence of 200 pM CGRP
Below is a list of entries, each paired with its recorded IC50 value.
quantity_name: IC50

[[record]]
compound = "CC(C)N1CCN(c2cccc(Cl)c2C2S[C@H](CC(=O)N3CCC(N4CCc5ccccc5NC4=O)CC3)C(=O)N2CCC(C)(C)C)CC1 (stereo partly shown) [Compound 433]"
quantity_name = "IC50"
test_result = "> 5 µM"

[[record]]
compound = "CN1C(=O)C(CC(=O)N2CCC(N3CCc4ccccc4NC3=O)CC2)SC1c1ccccc1 (stereo not shown) [Compound 132]"
quantity_name = "IC50"
test_result = "1 to 5 µM"

[[record]]
compound = "CN1CCN(c2cccc(F)c2C2SC(CC(=O)N3CCC(n4c(=O)[nH]c5ncccc54)CC3)C(=O)N2CCC(C)(C)C)CC1 (stereo not shown) [Compound 350]"
quantity_name = "IC50"
test_result = "< 1 µM"

[[record]]
compound = "CN1CCN(c2ccccc2[C@@H]2SC(CC(=O)N3CCCCC3)C(=O)N2CCC(C)(C)C)CC1 (stereo partly shown) [Compound 105]"
quantity_name = "IC50"
test_result = "> 5 µM"


====

- system_under_test: endogenous CGRP receptor (Homo sapiens, UniProt O60894+Q16602)
- assay_protocol: CGRP functional antagonism using SK-N-MC-BLA (4C10), β-lactamase transcriptional reporter assay
- run_parameters: SK-N-MC (4C10) cells, inhibition of β-lactamase expression in the presence of 200 pM CGRP
pIC50: −log10 of the molar value.
Below is a list of entries, each paired with its recorded pIC50 value.
quantity_name: pIC50

[[record]]
compound = "CN(c1ccccc1C1SC(CC(=O)N2CCC(n3c(=O)[nH]c4ncccc43)CC2)C(=O)N1CCC(C)(C)C)[C@@H]1CCN(Cc2ccccc2)C1 (some centres unmarked) [Compound 408]"
system_under_test = "endogenous CGRP receptor (Homo sapiens, UniProt O60894+Q16602)"
test_result = "> 6.00"

[[record]]
compound = "CC(C)(C)CCN1C(=O)[C@H](CC(=O)N2CCC(N3CCc4ccccc4NC3=O)CC2)SC1c1cccc(F)c1N1CCN(C2CCC2)CC1 (some centres unmarked) [Compound 543]"
system_under_test = "endogenous CGRP receptor (Homo sapiens, UniProt O60894+Q16602)"
test_result = "> 6.00"

[[record]]
compound = "CC(C)(C)CCN1C(=O)[C@H](CC(=O)N2CCC(O)(c3ccc(Br)cc3)CC2)SC1c1cccc(F)c1N1CCN(C(C)(C)C)CC1 (some centres unmarked)"
system_under_test = "endogenous CGRP receptor (Homo sapiens, UniProt O60894+Q16602)"
test_result = "> 6.00"

[[record]]
compound = "CCC(CC)C1SC(CC(=O)N2CCC(N3CCc4ccccc4NC3=O)CC2)C(=O)N1CCC(C)C (centres unmarked)"
system_under_test = "endogenous CGRP receptor (Homo sapiens, UniProt O60894+Q16602)"
test_result = "> 6.00"

[[record]]
compound = "O=C(CC1SC(c2ccccc2)N(CCc2ccccc2)C1=O)N1CCC(N2CCc3ccccc3NC2=O)CC1 (centres unmarked)"
system_under_test = "endogenous CGRP receptor (Homo sapiens, UniProt O60894+Q16602)"
test_result = "> 6.00"

[[record]]
compound = "CC(C)(C)CCN1C(=O)C(CC(=O)N2CCC(n3c(=O)[nH]c4ccccc43)CC2)SC1c1ccccc1N1CCOCC1 (centres unmarked)"
system_under_test = "endogenous CGRP receptor (Homo sapiens, UniProt O60894+Q16602)"
test_result = "> 6.00"

[[record]]
compound = "CC(C)(C)CC1SC(CC(=O)N2CCC(n3c(=O)[nH]c4ncccc43)CC2)C(=O)N1c1ccccc1N1CCCCC1 (centres unmarked)"
system_under_test = "endogenous CGRP receptor (Homo sapiens, UniProt O60894+Q16602)"
test_result = "< 5.30"

[[record]]
compound = "CN(C)C1CCN(c2ccccc2C2SC(CC(=O)N3CCC(N4CCc5ccccc5NC4=O)CC3)C(=O)N2CCC(C)(C)C)CC1 (centres unmarked)"
system_under_test = "endogenous CGRP receptor (Homo sapiens, UniProt O60894+Q16602)"
test_result = "5.30 to 6.00"

